- System: MS2 coat protein
- Measurement Description: apparent KD of MS2 coat protein; designed switch direction (-1 OFF switch, 1 ON switch): 1; higher = weaker reporter binding
- Run Conditions: Eterna round: R95; input ligand: none
Parameter: apparent KD of MS2 coat protein (nM)
The reply should be a number in nM, with the unit left off.

query: What apparent KD of MS2 coat protein value was documented for this sequence, UGGAUCUAGGCUUGCCUGGGUCCAUGUUGACAUGAGGAUCACCCAUGUGUAUUUUAUAAGCUUUUUGUUUGUCAACU [JL A Humble Attempt mod 8] (puzzle: Sensor for hsa-mir-208a) ?
result: 28.4

query: What apparent KD of MS2 coat protein value was documented for this sequence, UACAAUCUAUCUGAGGAUAUCAUGAAUUUAACAUGAGGAUCACCCAUGUGCAGGAAAACUGCAUAUGAGAAGGCAGAUAGAUUGU [salish99_ss2_r3_061] (puzzle: Same State 2) ?
result: 94.1

query: What apparent KD of MS2 coat protein value was documented for this sequence, GAGAGAGGAAGCGAGGAUAUCGUGUUAGGUACAUGAGGAUCACCCAUGUUGUAGGUAGAGGUAGGCGAGAAGGCGCAGGAGAGGU [JR_SS2_Sub095] (puzzle: Same State 2) ?
result: 32.2

query: What apparent KD of MS2 coat protein value was documented for this sequence, AUUAAACAUGAGGAUCACCCAUGUCAACAAAGUCGAGGAUAUGGGCAAAUAAUAUAAGAACCAGAAGGCGAAUAAU [salish99_ss1_r3_058] (puzzle: Same State 1) ?
result: 275

* * *

Please provide measured apparent KD of MS2 coat protein for the entries that follow.
- System: MS2 coat protein
- Measurement Description: apparent KD of MS2 coat protein; designed switch direction (-1 OFF switch, 1 ON switch): -1; higher = weaker reporter binding
- Run Conditions: input ligand: FMN 200 uM
The reply should be a number in nM, with the unit left off.

query: What apparent KD of MS2 coat protein value was documented for this sequence, UUUUUAUAUGAAGGAUAUACUUAACAUGAGGAUCACCCAUGUGGUGUUGUGAGUGAGUGAGUUUAGUAGAAGGUCAAUGAUUUG [JMF's solution 63] (Eterna round: R96, puzzle: Exclusion NG 2) ?
result: 894

query: What apparent KD of MS2 coat protein value was documented for this sequence, UAGUACAGAGGAUAUACAUGAGGAUCACCCAUGUGUUUCAGCUAGGAGACUAGCGAAAGUAGAAGGCUGUACUA [salish99_ex3_r4_008] (Eterna round: R97, puzzle: Exclusion 3) ?
result: 22.9

query: What apparent KD of MS2 coat protein value was documented for this sequence, GUCAAACAUGAGGAUCACCCAUGUGAGGAUAUUUAGGAUAGGAUAUGACUACUACUCCGAAGAAGGCACUCGGG [Eternabot (L1) Solution 7] (Eterna round: R97, puzzle: Exclusion 1) ?
result: 102

* * *

- System: MS2 coat protein
- Measurement Description: apparent KD of MS2 coat protein; designed switch direction (-1 OFF switch, 1 ON switch): -1; higher = weaker reporter binding
- Run Conditions: input ligand: FMN 200 uM
Please provide measured apparent KD of MS2 coat protein for the entries that follow.
The reply should be a number in nM, with the unit left off.

query: Request body: readout apparent KD of MS2 coat protein, system MS2 coat protein, query GCCUCACUUGAGGAUCACCCAAGUCAGGAUAUUCACGGAACUACGUAGUAGUUCGGCCGGAGAAGGGAUUCGGG [Qubexe] (Eterna round: R97, puzzle: Exclusion 1) . Return the value.
result: 64.8

query: Request body: readout apparent KD of MS2 coat protein, system MS2 coat protein, query ACAUGUAAUGUAGGAUAUUUUACACAUGAGGAUCACCCAUGUGACCGGAGGCUUUACUAUGAGUAAGAGAAGGGUAUGUACAUG [Ex NG2 #62] (Eterna round: R96, puzzle: Exclusion NG 2) . Return the value.
result: 90.5

query: Request body: readout apparent KD of MS2 coat protein, system MS2 coat protein, query AUGUUGCGAGGAUAUAUAAGGAGGUUAAAAUUUAUUAUGGAACAUGAGGAUCACCCAUGUAGAAGGUGCAUAAC [JR_Ex2_Sub038] (Eterna round: R97, puzzle: Exclusion 2) . Return the value.
result: 49.6

query: Request body: readout apparent KD of MS2 coat protein, system MS2 coat protein, query CUAUGUGAUUAGGAUAUUACUGGGCUAUCGCCUUGAGAAGGAGUUACAUGAGGAUCACCCAUGUCAACGCGACC [Eternabot (L2) Solution 44] (Eterna round: R97, puzzle: Exclusion 6) . Return the value.
result: 17.8
